Assay: collision cross section of modified peptide (TIMS, N2, iRT-aligned); higher = larger / more extended gas-phase ion
Details: charge state: 2; modification: GlyGly (K)
measureName: collision cross section (Å²)
Give a bare numeral; the unit Å² is implied.

{"columns": ["residueSequence", "readoutUnits", "collision cross section"],
 "data": [
  ["TLQKQSVVYGGK [_TLQK(GlyGly (K))QSVVYGGK_]", "Å²", 403.57]
]}

Find the recorded collision cross section belonging to VNALKNLQVK [_VNALK(GlyGly (K))NLQVK_] and report it.
383.13

Sample ITGKNQVTATK [_ITGK(GlyGly (K))NQVTATK_] — what was its collision cross section?
373.22

Which collision cross section value is on record for PGGEGPQCEKTTDVK [_PGGEGPQCEK(GlyGly (K))TTDVK_] ?
422.06

State the recorded collision cross section for this entry: IPQEKCILQTDVK [_IPQEK(GlyGly (K))CILQTDVK_]
446.01

* * *

Test: collision cross section of modified peptide (TIMS, N2, iRT-aligned); higher = larger / more extended gas-phase ion
Details: charge state: 2; modification: Malonyl
Binary classification by collision cross section, with 400 Å² as an inclusive lower bound for Satisfied; all other cases are Not satisfied.

{"columns": ["residueSequence", "class"],
 "data": [
  ["GTISAPGKVVTAAAQAK [_GTISAPGK(Malonyl)VVTAAAQAK_]", "Satisfied"],
  ["TTGFYSGFSEVAEKR [_TTGFYSGFSEVAEK(Malonyl)R_]", "Satisfied"],
  ["DTGEKLTVAENEAETK [_DTGEK(Malonyl)LTVAENEAETK_]", "Satisfied"],
  ["DESFLGKLGGTLAR [_DESFLGK(Malonyl)LGGTLAR_]", "Satisfied"],
  ["LDHLAEKFR [_LDHLAEK(Malonyl)FR_]", "Not satisfied"]
]}

Answer whether collision cross section of VDVEVPDVSLEGPEGKLK [_VDVEVPDVSLEGPEGK(Malonyl)LK_] is greater than or equal to 400 Å².
Satisfied

Please tell me: is the sequence TTEETSKPK [_TTEETSK(Malonyl)PK_] at or over 400 Å² in terms of collision cross section?
Not satisfied

* * *

Experiment: collision cross section of modified peptide (TIMS, N2, iRT-aligned); higher = larger / more extended gas-phase ion
Details: charge state: 2; modification: Biotin
± gives the standard deviation.
measureName: collision cross section
Answer format reminder: number followed by unit.

Use these answered entries as a reference point.
{"columns": ["residueSequence", "endpointValue"],
 "data": [
  ["LDEKENLSAK [_LDEK(Biotin)ENLSAK_]", "382.87 Å²"],
  ["ALASIDSKLNQAK [_ALASIDSK(Biotin)LNQAK_]", "417.14 ± 2.9 Å²"],
  ["VGTASVLQPVKK [_VGTASVLQPVK(Biotin)K_]", "406.39 ± 1.1 Å²"],
  ["SGKFTQQDIDEAK [_SGK(Biotin)FTQQDIDEAK_]", "433.94 ± 2.7 Å²"],
  ["DFDTALKHYDK [_DFDTALK(Biotin)HYDK_]", "424.89 ± 0.23 Å²"]
]}

Tell me the measured collision cross section of DSSPTTNSKLSALQR [_DSSPTTNSK(Biotin)LSALQR_] , please.
447.16 ± 2.3 Å²

Reference source: the supplement of paper PMC10598134
